- Test system: NCI-H23
- methodDescription: Cell viability assay for NSCLC lines
- Format: cell-based, human
- conditions: NCI-H23, 3 days
pIC50: −log10 of the molar value.
assayReadout: pIC50

> print(dat)
                                 smilestext  assayreadout  resultnumber
1  CO[C@H]1CC[C@H](N2C(=O)CNc3ncc(-c4ccc(C(C)(C)O)nc4)nc32)CC1         pIC50          5.66

----------
- Test system: HuH-7
- methodDescription: Growth inhibition assay for HCC lines
- Format: cell-based
- conditions: HuH-7, 96 hours, DMEM + 10% FBS
assayReadout: IC50 (nM)

> print(dat)
                                   compound  readingunit  resultnumber
1  CO[C@H]1CC[C@H](N2C(=O)CNc3ncc(-c4ccc(C(C)(C)O)nc4)nc32)CC1 [Compound 1]           nM           100

Every entry's value here was drawn from patent US9493466B2.
